Where do these numbers come from? They come from patent US12691070B2.

test system: Hep G2 cells; test: In vitro toxicity (CellTiter-Glo cell viability), Hep G2; type: cell-based; details: mRNA (SEQ ID NO: 2) LNP, 1 μg/mL, 72 hours post transfection;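 note: percent of untreated cells luminescence signal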
Exercise: for every item that follows, state its recorded In vitro Viability HepG2.
Record the value in %, omitting the unit from your answer.

Prompt line: Which In vitro Viability HepG2 is reported for this compound? "CCCCC/C=C\C/C=C\CCCCCCCCN(CCCCCC(=O)OCCCCCCCCCCC)CCOC(=O)NCc1ncc[nH]1"
Response line: 85

Prompt line: Request the reported In vitro Viability HepG2 associated with "CCCCC/C=C\C/C=C\CCCCCCCCN(CCCCCCCC(=O)OC(CCCCCCCC)CCCCCCCC)CCOC(=O)NCCN1CCCCC1"
Response line: 100

Prompt line: Which In vitro Viability HepG2 reading was recorded for the compound CCCCC/C=C\C/C=C\CCCCCCCCN(CCCCCC(=O)OCC(CCCCCCCC)CCCCCCCCCC)CCOC(=O)NCCN(C)C (stereo not shown) ?
Response line: 95

Prompt line: Dear colleague, I am looking for the recorded In vitro Viability HepG2 of the following compound: CCCCCCCCC(CCCCCC)C(=O)OCCCCCCCCN(CCCCCCCCOC(=O)C(CCCCCC)CCCCCCCC)CCCOC(=O)NCc1ncc[nH]1 (stereo not shown)
Response line: 100

Prompt line: Given the compound "CCCCC/C=C\C/C=C\CCCCCCCCN(CCCCCCCC(=O)OC(CCCCCCCC)CCCCCCCC)CCOC(=O)NCCN1CCCC1" , what is its reported In vitro Viability HepG2?
Response line: 94

Prompt line: Entry CCCCC/C=C\CCOC(=O)CCCCCCCN(CCCCCCCC(=O)OCC/C=C\CCCCC)CCOC(=O)CCCN(C)C [Lipid C, reference compound] has what In vitro Viability HepG2?
Response line: 103

Prompt line: # lookup: In vitro Viability HepG2 of CCCCCCCCCCC(CCCCCCCC)COC(=O)CCCCCN(CCCCCC(=O)OCC(CCCCCCCC)CCCCCCCCCC)CCOC(=O)NCCN1CCCCC1 (stereo not shown)
Response line: 93

Prompt line: Which value of In vitro Viability HepG2 has been reported for CCCCCCCCCCC(CCCCCCCC)COC(=O)CCCCCN(CCCCCC(=O)OCC(CCCCCCCC)CCCCCCCCCC)CCOC(=O)NCCN(C)C (stereo not shown) in the records?
Response line: 124

Prompt line: Param item = CCCCCCCCC(CCCCCC)C(=O)OCCCCCCCCN(CCCCCCCCCCC(=O)OCCCCCC)CCOC(=O)NCCN(C)C (stereo not shown) ; retrieve measured In vitro Viability HepG2.
Response line: 97

Prompt line: Fill in: In vitro Viability HepG2 of CCCCCCCCCCC(CCCCCCCC)COC(=O)CCCCCN(CCCCCC(=O)OCC(CCCCCCCC)CCCCCCCCCC)CCCOC(=O)NCCN1CCCCC1 (stereo not shown) is ___
Response line: 94

---

test system: Hep G2 cells; experiment: In vitro toxicity (CellTiter-Glo cell viability), Hep G2; assay type: cell-based; conditions: cirRNA (SEQ ID NO: 1) LNPs; Hep G2 cells;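 note: percent of untreated cells luminescence signal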
Note to self: values exactly at 80% are 1 (yes). So In vitro Viability HepG2 at or above 80% is 1 (yes), below is 0 (no).

Prompt line: Hello, I need to know if CCCCC/C=C\C/C=C\CCCCCCCCN(CCCCCC(=O)OCCCCCCCCCCC)CCOC(=O)NCc1ncc[nH]1 [Lipid 90] has measured In vitro Viability HepG2 not below 80%. Thanks!
Response line: 1 (yes)

Prompt line: Please tell me: is the compound CCCCCCCOC(=O)CCCCCCCCCN(CCCCCCCCCC(=O)OCCCCCCC)CCOC(=O)NCCN1CCCC1 [Lipid 119] at or over 80% in terms of In vitro Viability HepG2?
Response line: 0 (no)

Prompt line: Entry CCCCCCCCC(CCCCCCCC)OC(=O)CCCCCCCN(CCCCCCCCOC(=O)C(CCCCCC)CCCCCCCC)CCNC(=O)OCCN(C)C (stereo not drawn) [Lipid 279] : is its In vitro Viability HepG2 no less than 80%?
Response line: 0 (no)

Prompt line: Does the reported In vitro Viability HepG2 for CCCCCCCC/C=C\CCCCCCCCN(CCCCCCCCOC(=O)C(CCCCCC)CCCCCCCC)CCOC(=O)NCCN1CCN(C)CC1 (stereo not drawn) [Lipid 214] fall at or above the 80% mark?
Response line: 1 (yes)

Prompt line: Reported In vitro Viability HepG2 reaches at least 80% for CCCCC/C=C\C/C=C\CCCCCCCCN(CCCCCCCC/C=C\CCCCCCCC)CCOC(=O)NCCCN(CC)CC [Lipid 69] ?
Response line: 1 (yes)
